The entries below come with measured kon values attached.
Target: T1, endothelial protein C receptor (EPCR), extracellular domain, biotinylated on the N-terminal BAP tag (human, UniProt Q9UNN8 18-210, biotin attached to the N-terminal BAP tag (BirA))
T1 construct: also called biotinylated recombinant EPCR; ECPR
T1 sequence: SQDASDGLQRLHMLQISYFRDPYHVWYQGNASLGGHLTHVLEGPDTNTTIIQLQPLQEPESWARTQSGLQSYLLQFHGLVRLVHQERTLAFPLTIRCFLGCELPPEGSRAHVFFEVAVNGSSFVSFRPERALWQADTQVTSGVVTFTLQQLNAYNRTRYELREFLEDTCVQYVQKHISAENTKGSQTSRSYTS
Assay: SPR
Conditions: both partners purified
Could you give me the number in M⁻¹ s⁻¹? Just the number is fine.

Sample answers from the record:
CIDRα1.8b domain GA029_ERS010532 (domain or fragment, also called CIDRa1.8b GA029_ERS010532; GA029 (1.8b)) PDCVVVCERGNCTEKKGDDKCRKKYTYEIPAGMESTKIDILFSGENQEDITEKLRSFCKNTNNENGENIEKWECYYKNEYDNKCKMTSLKREDQKHHDLMSYYEFFDFWVTHLIKDTIKWESDINDCINNTNVTNCNNGCNENCICFEKWVGQKEKEWENVKKVLKNPSENLNNYYNKLNGIFSGFFFGVMHELKKKEAKQGVKVEKAEKSEEAQEAQEEEAKWNKLTAKLEEIIKSHKENTGTGNTQDAIEPLLKYLDENAITCKDNNSLKEDKNCPKTKKNPC : 6550
CIDRα1.8a domain of PfEMP1 MAL6P1.316 (domain or fragment, also called CIDRa1.8a MAL6P1.316_3D7; MAL6P1.316 (1.8a)) PACVVECDGGKCEEKKNSDGTCIEAQIYTVVRDETPTPIKVLFSGDHQKDITKKLSSFCKNPESENNRDYQTWQCYYKSSDYNNCEMKGSLYKVEGDPNIIVSHECFHLWVQSLLIDTIKWETKLKKCINNTNVTNCYNKCNKNCECFENWVEQKKKEWENVNDVYKDQKQSLGIYYEKLENLFKSNFFQVMKALEGDEKGKWYQFKDDLKKKFEPSEKNTRTTDSQDAIKLILDHLKDNATTCKDNNSLEEDENC : 16700

As a next step, examine the binder that follows.
Asked: Which kon is reported for this binder? CIDRα1.1 domain of PfEMP1 IT4var19 (domain or fragment, also called CIDRa1.1 IT4var19_IT4; IT4var19 (1.1)) PDCVVVCEGGNCKEKTEDDNCRSEIIKKILKYETPTPIDVLYSGKGQGLITKKLEDFCSSTTNYEGTNVQKWKCYNKNKDYNNCEMNISSYKDATDPNVMLSVECFHSWAKNLLIDTIRWEHQLKNCINNTNVTDCTSKCIKNCECYEKWIKEKEKEWPQVKGVLKKKDETSHNYYDKLKDVFDRFLFEVKGALDQDEKGKWDQFTKDLEKKFGPSVESAGTANSQDAIELLLDHLNDNATTCKDNNSLAVENC
Given back: 22700

Origin of values: paper PMC4297295
